Values compiled from patent US11053204B2.

- Tested on: lambsquarters (Chenopodium album)
- RUN DESCRIPTION: Test C postemergence, plant response rating
- Format: in vivo
- EXPERIMENTAL SETUP: 16 g ai/ha, scale of 0 to 100
QUANTITY: Plant response rating, Lambsquarters

Problem: Any idea what its Plant response rating, Lambsquarters is? The compound is FC(F)(F)CCCCc1c(Br)cccc1Oc1ncc(Cl)cn1
Result: 65

Problem: Any idea what its Plant response rating, Lambsquarters is? The compound is O=C(CCC(F)(F)C(F)(F)F)c1c(Br)cccc1Oc1ncc(Cl)cn1
Result: 75

Problem: Any idea what its Plant response rating, Lambsquarters is? The compound is O=C(CCCC(F)(F)F)c1c(Cl)cccc1Oc1ncc(Cl)cn1
Result: 75

Problem: Any idea what its Plant response rating, Lambsquarters is? The compound is CCCCC(=O)c1c(Br)cccc1Oc1ncc(Cl)cn1
Result: 75

Problem: Any idea what its Plant response rating, Lambsquarters is? The compound is O=C(CCC(F)(F)F)c1c(Br)cccc1Oc1ncc(Cl)cn1
Result: 40

Problem: Any idea what its Plant response rating, Lambsquarters is? The compound is FC(F)(F)CCCc1c(Br)cccc1Oc1ncc(Cl)cn1
Result: 70

---

Kindly state pest or weed control at 62 g/ha for each of the entries shown.
- Test system: morningglory (Ipomoea coccinea)
- RUN DESCRIPTION: Test C postemergence, plant response rating
- Assay type: in vivo
- EXPERIMENTAL SETUP: Ipomoea, post-emergence, 62 g ai/ha, scale 0 to 100 (0 no effect, 100 complete control)
Phrase the answer as number then unit, nothing more needed.

Problem: Any idea what its pest or weed control at 62 g/ha is? The compound is C=CCCOC(=O)c1c(Br)cccc1Oc1ncc(Cl)cn1
Result: 40%

Problem: Any idea what its pest or weed control at 62 g/ha is? The compound is C=CCOC(=O)c1c(Br)cccc1Oc1ncc(Cl)cn1
Result: 35%

Problem: Any idea what its pest or weed control at 62 g/ha is? The compound is CC(CC(F)(F)F)OC(=O)c1c(Br)cccc1Oc1ncc(Cl)cn1 (stereo not shown)
Result: 40%

Problem: Any idea what its pest or weed control at 62 g/ha is? The compound is O=C(CCC(F)(F)F)c1c(Cl)cccc1Oc1ncc(Cl)cn1
Result: 80%

---

- Tested on: galium (catchweed bedstraw, Galium aparine)
- RUN DESCRIPTION: Test A postemergence, visual injury rating
- Format: in vivo
- EXPERIMENTAL SETUP: 31 g ai/ha, 0 to 100 scale (0 no effect, 100 complete control)
QUANTITY: Galium plant response rating
Give the value as a plain number.

Problem: Param readout = Galium plant response rating; param system = galium (catchweed bedstraw, Galium aparine); param query = CCc1cccc(Oc2ncc(Cl)cn2)c1CCCCC(F)(F)F ; response: value
Result: 10

Problem: Param readout = Galium plant response rating; param system = galium (catchweed bedstraw, Galium aparine); param query = CCCCC(C#N)c1ccccc1Oc1ncc(Cl)cn1 (stereo not drawn) ; response: value
Result: 30

Problem: Param readout = Galium plant response rating; param system = galium (catchweed bedstraw, Galium aparine); param query = FC(F)(F)CCCCc1c(Cl)cccc1Oc1ncc(Cl)cn1 ; response: value
Result: 40

Problem: Param readout = Galium plant response rating; param system = galium (catchweed bedstraw, Galium aparine); param query = N#Cc1cccc(Oc2ncc(Cl)cn2)c1COCC(F)(F)F ; response: value
Result: 20

Problem: Param readout = Galium plant response rating; param system = galium (catchweed bedstraw, Galium aparine); param query = N#Cc1cccc(Oc2ncc(Cl)cn2)c1C(=O)CCCC(F)(F)F ; response: value
Result: 30

Problem: Param readout = Galium plant response rating; param system = galium (catchweed bedstraw, Galium aparine); param query = N#CC(CCCCC(F)(F)F)c1ccccc1Oc1ncc(Cl)cn1 (stereo not drawn) ; response: value
Result: 40
